TEST SYSTEM: Subtilisin-like protease 1 (Plasmodium falciparum)
METHOD NOTES: Inhibition of Plasmodium falciparum SUB1 assessed as residual hydrolytic activity at 50 uM by fluorimetric assay
Consider the cut-off 60%. If the recorded Activity is strictly smaller, the label is 1; if not, the label is -1.

Given Cc1cc(NNC(=O)c2ccc(S(C)(=O)=O)cc2)c2cc3c(cc2n1)OCO3 , is recorded Activity strictly lower than 60%?
-1

For this compound, is Activity lower than 60%? Cc1cc(/N=C/c2ccc([N+](=O)[O-])cc2)c2cc3c(cc2n1)OCO3
-1

Consider the compound COc1ccc2nccc(N/N=C/c3ccc([N+](=O)[O-])cc3)c2c1 . Is its Activity strictly less than 60%?
1
